Target: Large T antigen (Simian virus 40, UniProt P03070);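 note: Confirmatory-stage PubChem screen for compounds that inhibit SV40 T antigen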
Sequence (P03070 whole entry): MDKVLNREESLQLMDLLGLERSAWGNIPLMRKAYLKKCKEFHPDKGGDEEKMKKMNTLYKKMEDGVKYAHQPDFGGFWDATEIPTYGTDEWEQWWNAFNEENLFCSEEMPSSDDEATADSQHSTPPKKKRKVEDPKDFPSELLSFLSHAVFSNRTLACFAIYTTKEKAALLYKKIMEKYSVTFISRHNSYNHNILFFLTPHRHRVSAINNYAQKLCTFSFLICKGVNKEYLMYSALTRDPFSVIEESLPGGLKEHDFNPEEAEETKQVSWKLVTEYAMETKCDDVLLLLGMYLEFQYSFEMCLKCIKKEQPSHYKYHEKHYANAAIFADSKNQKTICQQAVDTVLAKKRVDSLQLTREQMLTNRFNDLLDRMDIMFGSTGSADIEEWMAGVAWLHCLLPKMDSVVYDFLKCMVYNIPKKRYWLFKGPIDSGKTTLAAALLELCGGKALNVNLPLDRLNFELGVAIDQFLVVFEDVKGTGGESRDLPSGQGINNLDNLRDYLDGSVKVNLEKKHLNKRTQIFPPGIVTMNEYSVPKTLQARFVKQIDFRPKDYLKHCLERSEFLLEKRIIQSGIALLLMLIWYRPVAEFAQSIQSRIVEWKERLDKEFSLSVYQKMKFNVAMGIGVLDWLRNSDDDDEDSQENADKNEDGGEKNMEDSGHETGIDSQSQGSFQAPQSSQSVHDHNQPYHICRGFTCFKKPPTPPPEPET
Type: functional, Betapolyomavirus macacae
The source made the active and inactive calls.
readoutLabel: IC50

Oc1cc2c(c(Cl)c1O)CCNCC2c1ccccc1 (configuration not stated)
> 100 µM (active)

Provide one value: measured IC50 of O=c1[nH]c(=S)[nH]c2c1C(c1ccc(Br)cc1)c1c([nH]c(=S)[nH]c1=O)O2
21.4 µM (active)

Provide one value: measured IC50 of O=C1NC(=O)/C(=C/c2ccc(O)cc2)S1
10.1 µM (active)

Provide one value: measured IC50 of Oc1ccc(/C=N/N2CCN(c3ccccn3)CC2)cc1
42.5 µM (active)

Provide one value: measured IC50 of Cc1nc(-c2ccc(O)c(O)c2)cs1
6.46 µM (active)

Provide one value: measured IC50 of Cc1nnc(NN/C=C2\C(=O)N(c3cccc(C(F)(F)F)c3)C(=O)c3ccccc32)nc1O
15.2 µM (active)

Provide one value: measured IC50 of COc1ccc2c(c1)c(C(=O)N/N=C/c1ccc(O)c(O)c1)c(C)n2C
16.7 µM (active)

###

Biological target: Cytochrome P450 2D6 (Homo sapiens);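 note: CYP2D6 member of a cytochrome P450 panel assay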
Sequence (P10635 whole entry): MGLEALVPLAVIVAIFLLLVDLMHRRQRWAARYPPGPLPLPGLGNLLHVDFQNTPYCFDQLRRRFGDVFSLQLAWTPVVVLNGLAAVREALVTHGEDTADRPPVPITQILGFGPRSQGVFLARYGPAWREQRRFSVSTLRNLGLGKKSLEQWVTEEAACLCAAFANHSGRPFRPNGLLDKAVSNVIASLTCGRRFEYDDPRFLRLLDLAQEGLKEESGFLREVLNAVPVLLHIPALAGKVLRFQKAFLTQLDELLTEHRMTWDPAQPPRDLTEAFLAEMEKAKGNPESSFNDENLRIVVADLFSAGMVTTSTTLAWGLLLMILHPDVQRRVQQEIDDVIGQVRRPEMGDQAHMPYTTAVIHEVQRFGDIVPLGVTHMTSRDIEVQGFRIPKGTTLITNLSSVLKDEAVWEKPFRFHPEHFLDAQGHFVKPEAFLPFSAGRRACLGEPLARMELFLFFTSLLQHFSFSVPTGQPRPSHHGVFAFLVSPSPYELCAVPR
Items are presented alongside their recorded AC50.

Check out these entries, answers already filled in.
Cc1cccc(NC(=O)CSc2nc3ccccc3c3nc(CCc4c(C)n[nH]c4C)nn23)c1
8.91 µM (inconclusive)
COC(=O)CNC(=O)CN1C(=O)N(c2ccc(Cl)cc2)C(N(O)C(=O)Nc2ccc(Cl)cc2)C1(C)C (stereo unspecified)
15.8 µM (inconclusive)

Provide one value: measured AC50 of Cc1ccccc1C(=O)NC(C)c1ccc2c(c1)CCCC2 (stereo unspecified)
15.8 µM (inconclusive)

Provide one value: measured AC50 of O=S(=O)(c1ccc(F)cc1)n1ccc(-c2cnc(-c3ccccc3)s2)n1
17.8 µM (inconclusive)

Provide one value: measured AC50 of Cc1cccc(C)c1OCC(O)CNC(C)(C)C (stereo unspecified)
8.91 µM (inconclusive)

###

Target: Heat shock factor protein 1 (Mus musculus)
Sequence (P38532 whole entry): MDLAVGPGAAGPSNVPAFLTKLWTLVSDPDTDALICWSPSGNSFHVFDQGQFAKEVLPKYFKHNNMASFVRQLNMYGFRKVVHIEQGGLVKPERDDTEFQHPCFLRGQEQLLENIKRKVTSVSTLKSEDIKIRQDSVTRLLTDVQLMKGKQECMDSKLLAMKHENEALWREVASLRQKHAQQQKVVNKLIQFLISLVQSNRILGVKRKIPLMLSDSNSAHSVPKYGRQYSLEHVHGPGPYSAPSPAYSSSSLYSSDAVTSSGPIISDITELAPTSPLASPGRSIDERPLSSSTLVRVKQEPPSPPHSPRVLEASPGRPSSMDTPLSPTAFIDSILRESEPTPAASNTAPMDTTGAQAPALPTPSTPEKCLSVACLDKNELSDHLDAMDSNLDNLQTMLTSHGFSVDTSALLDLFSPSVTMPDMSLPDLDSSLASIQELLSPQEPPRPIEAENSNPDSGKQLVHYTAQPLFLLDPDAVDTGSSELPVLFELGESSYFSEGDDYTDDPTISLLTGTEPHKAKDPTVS
Test: HSF1 potentiators in luciferase reporter cells, confirmation, cell-based, NIH3T3, luminescence, dose retest (AID 435004);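 note: stress induced by proteasome inhibitor MG132 added 30 min after compound; luciferase reporter driven by HSF1 response element in NIH3T3 cells; actives raise luminescence as potentiators of the MG132 stress response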
Assay type: functional
Calls of active or inactive are those of the source.
# valid calls are yes (1) for active, no (0) for inactive; nothing else

Illustrative cases are given below, each with its answer.
Cc1ccc(CNC(=O)c2cn(C3CCCCC3)c(=O)c3c2c2ccccc2n3C)o1
yes (1)
COC(=O)c1ccc(C(=O)OC)c(NC(=O)C(C)(C)C)c1
no (0)
Cc1cc(Sc2ncnc(N)c2[N+](=O)[O-])ncn1
yes (1)
Cn1c(Sc2ccc(C(F)(F)F)cc2[N+](=O)[O-])nnc1-c1ccccc1
no (0)
CC12CCC(=O)N1C(C(=O)Nc1cccc3ccccc13)CS2 (configuration not stated)
no (0)
Cc1cc(C)n(CC(O)COc2ccc(Cl)cc2Cl)n1 (configuration not stated)
yes (1)
CCC(=O)Nc1ccc2nn(-c3ccc(F)cc3)nc2c1
no (0)
O=C1NC(=O)[C@]2(Cc3ccccc3N3CCN(c4ccccc4)CC32)C(=O)N1Cc1ccccc1 (some centres not stated)
no (0)

Could you check what this test reported for CN(C)CCNC(=O)/C(=C/c1ccc(-c2cccc(Cl)c2)o1)NC(=O)c1ccccc1 ?
no (0)

Could you check what this test reported for CC(=O)SC(C[N+](=O)[O-])c1cn(C(C)=O)c2ccccc12 (configuration not stated) ?
yes (1)

Could you check what this test reported for CCCCNc1nc(Nc2ccc(C)c(Cl)c2)c2cnn(C)c2n1 ?
no (0)

Could you check what this test reported for Cn1c(CN2CCN(C(=O)c3ccc(F)cc3)CC2)nc2cc([N+](=O)[O-])ccc21 ?
no (0)

###

Target: UniProtKB P10520
Sequence (P10520 whole entry): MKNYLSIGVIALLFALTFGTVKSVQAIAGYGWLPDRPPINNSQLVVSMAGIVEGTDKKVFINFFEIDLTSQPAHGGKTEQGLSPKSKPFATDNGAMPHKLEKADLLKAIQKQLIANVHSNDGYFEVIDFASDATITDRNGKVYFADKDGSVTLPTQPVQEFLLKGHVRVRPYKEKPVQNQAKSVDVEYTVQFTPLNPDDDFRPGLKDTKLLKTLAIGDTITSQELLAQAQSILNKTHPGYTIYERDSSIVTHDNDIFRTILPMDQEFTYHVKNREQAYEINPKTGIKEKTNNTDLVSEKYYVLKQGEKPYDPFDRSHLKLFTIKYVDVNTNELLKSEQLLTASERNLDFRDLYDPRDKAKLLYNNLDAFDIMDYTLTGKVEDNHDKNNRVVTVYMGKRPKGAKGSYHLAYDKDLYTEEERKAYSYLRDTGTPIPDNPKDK
Assay: S. pyogenes streptokinase expression inhibitors, potency, dose response, plasminogen activation absorbance, OD405 (AID 1914);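 note: secreted streptokinase activity via plasminogen activation per viability signal from cell pellet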
Type: functional, Streptococcus pyogenes M1 GAS
The source made the active and inactive calls.
readoutLabel: EC50

O=C(Nc1nnc(-c2ccco2)o1)c1ccc2ccccc2c1
> 150 µM (not active)
COc1cc2c3c(c1)/C(=C1/SC(=S)NC1=O)C(=O)N3C(C)(C)C=C2C
1.72 µM (active)
CN1C(=O)/C(=C/c2ccc(C(F)(F)F)cc2)Sc2ccc(C(=O)N3CCN(c4ccccn4)CC3)cc21
> 150 µM (not active)
C[C@H](CCC(=O)NCC(=O)O)[C@H]1CC[C@H]2[C@@H]3[C@H](O)C[C@@H]4C[C@H](O)CC[C@]4(C)[C@H]3C[C@H](O)[C@]12C
> 150 µM (not active)

Would you kindly look at the next entry?
Provide one value: measured EC50 of COc1cc(Cc2cc(N)nc(N)n2)cc(OC)c1OC
> 150 µM (not active)

###

Assay: inhibitors of SNCA 5'UTR-driven reporter translation, confirmation, H4 neuroglioma cells, luminescence (AID 1988)
Type: functional, cell-based
The source made the active and inactive calls.
readoutLabel: EC50

Check out these entries, answers already filled in.
Cc1ccc(N2C(=O)/C(=C\Nc3cc(C)on3)c3ccccc3C2=O)c(C)c1
12.9 µM (active)
C/C(=N\NC(=O)c1c(C)nc2ccccn12)c1ccc(O)cc1O
< 0.1 µM (active)
CCN(CC)CC(=O)Nc1sc2c(c1C(=O)c1ccccc1OC)CCC2
> 120 µM (not active)
Cc1oc(-c2ccccc2Cl)nc1C[S+]([O-])CC(=O)NCCc1ccccc1 (stereo unspecified)
> 120 µM (not active)
CSc1nc2c(c(=O)n1Cc1ccccc1)SC(C)C2 (stereo unspecified)
84.8 µM (active)

Would you kindly look at the next entry?
Provide one value: measured EC50 of Cc1nc2ccccc2n1-c1nc(-c2ccco2)cc(C(F)(F)F)n1
5.41 µM (active)

###

Target: ORF 73 (Human herpesvirus 8)
Sequence (O40947 whole entry): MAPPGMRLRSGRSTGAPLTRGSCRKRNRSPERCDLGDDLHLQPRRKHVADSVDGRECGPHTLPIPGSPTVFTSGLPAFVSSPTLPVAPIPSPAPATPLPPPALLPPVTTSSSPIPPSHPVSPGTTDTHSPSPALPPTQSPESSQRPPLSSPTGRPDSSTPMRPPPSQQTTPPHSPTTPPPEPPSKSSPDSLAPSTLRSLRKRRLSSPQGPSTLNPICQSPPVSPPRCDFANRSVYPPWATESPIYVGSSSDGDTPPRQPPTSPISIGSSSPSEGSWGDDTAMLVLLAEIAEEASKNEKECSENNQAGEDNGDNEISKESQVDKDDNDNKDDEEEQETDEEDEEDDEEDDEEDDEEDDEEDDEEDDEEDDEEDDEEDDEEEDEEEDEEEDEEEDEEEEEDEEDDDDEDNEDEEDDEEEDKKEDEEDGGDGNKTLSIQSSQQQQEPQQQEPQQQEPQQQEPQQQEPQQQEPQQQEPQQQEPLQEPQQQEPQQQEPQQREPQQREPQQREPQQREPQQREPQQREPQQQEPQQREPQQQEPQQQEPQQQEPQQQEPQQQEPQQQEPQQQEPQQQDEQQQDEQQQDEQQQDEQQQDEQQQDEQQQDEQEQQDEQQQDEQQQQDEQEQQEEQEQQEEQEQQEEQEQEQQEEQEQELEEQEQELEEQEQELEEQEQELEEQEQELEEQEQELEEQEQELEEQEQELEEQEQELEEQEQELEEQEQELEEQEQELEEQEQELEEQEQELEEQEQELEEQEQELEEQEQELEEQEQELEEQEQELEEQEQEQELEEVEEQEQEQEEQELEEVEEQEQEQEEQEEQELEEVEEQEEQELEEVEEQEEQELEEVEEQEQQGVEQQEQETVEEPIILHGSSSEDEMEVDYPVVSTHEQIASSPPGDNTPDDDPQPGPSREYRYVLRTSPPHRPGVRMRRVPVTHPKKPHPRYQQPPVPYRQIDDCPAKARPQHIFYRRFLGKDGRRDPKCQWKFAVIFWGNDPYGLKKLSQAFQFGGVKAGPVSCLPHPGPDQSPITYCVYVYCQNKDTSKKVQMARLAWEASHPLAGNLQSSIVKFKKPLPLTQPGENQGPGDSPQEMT
Test: inhibitors of C-LANA binding to LBS DNA, dose response, biochemical, fluorescence polarization, cherry-picked samples (AID 504725);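 note: fluorescence polarization of a labeled DNA duplex reporting LANA DNA binding; potency is for inhibitors that block LANA binding to the DNA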
Set-up: species or system Human gammaherpesvirus 8
Calls of active or inactive are those of the source.
readoutLabel: AC50

CN1CCN(c2ccc([N+](=O)[O-])c3no[n+]([O-])c23)CC1
12.6 µM (active)

Provide one value: measured AC50 of O=c1[nH]c(=S)[nH]c2c1C(c1ccc(Br)cc1)c1c([nH]c(=S)[nH]c1=O)O2
281 µM (active)

Provide one value: measured AC50 of CCOC(=O)C1CCCN(c2ccc([N+](=O)[O-])c3nonc23)C1 (centres undefined)
4.35 µM (active)

Provide one value: measured AC50 of COCCN(CCOC)Cc1c(O)ccc2c1O/C(=C\c1ccco1)C2=O
11.9 µM (active)

###

Items are presented alongside their recorded IC50.
Biological target: UniProt:P29990
Test: Dengue-2 NS5 methyltransferase inhibitors, primary screen, biochemical, confirmation dose response (AID 588689)
Format: functional
Calls of active or inactive are those of the source.

CCCCC[C@@H]1C=C(C(=O)O)[C@H](c2ccc(Cl)cc2)N1S(=O)(=O)c1ccc(C)cc1
42.3 µM (active)

Provide one value: measured IC50 of COc1ccc(OC)c(N2C(=O)NC(=O)/C(=C/c3ccc([N+](=O)[O-])s3)C2=O)c1
18.8 µM (active)

Provide one value: measured IC50 of O=c1nc2n(c(O)c1C(c1ccc(O)cc1)c1c(O)nc3n(c1=O)CCS3)CCS2 (stereo not given)
48.5 µM (active)

Provide one value: measured IC50 of O=c1[nH]c(=S)[nH]c2c1C(c1ccc(Br)cc1)c1c([nH]c(=S)[nH]c1=O)O2
73.7 µM (active)

Provide one value: measured IC50 of CCOc1cc(/C=C2/SC(=S)N(CC(=O)O)C2=O)ccc1OC(=O)c1cccs1
56.3 µM (active)
